Value source: paper PMC8028158

measured.target: TRPC6 (Mus musculus)
Sequence (Q61143 whole entry): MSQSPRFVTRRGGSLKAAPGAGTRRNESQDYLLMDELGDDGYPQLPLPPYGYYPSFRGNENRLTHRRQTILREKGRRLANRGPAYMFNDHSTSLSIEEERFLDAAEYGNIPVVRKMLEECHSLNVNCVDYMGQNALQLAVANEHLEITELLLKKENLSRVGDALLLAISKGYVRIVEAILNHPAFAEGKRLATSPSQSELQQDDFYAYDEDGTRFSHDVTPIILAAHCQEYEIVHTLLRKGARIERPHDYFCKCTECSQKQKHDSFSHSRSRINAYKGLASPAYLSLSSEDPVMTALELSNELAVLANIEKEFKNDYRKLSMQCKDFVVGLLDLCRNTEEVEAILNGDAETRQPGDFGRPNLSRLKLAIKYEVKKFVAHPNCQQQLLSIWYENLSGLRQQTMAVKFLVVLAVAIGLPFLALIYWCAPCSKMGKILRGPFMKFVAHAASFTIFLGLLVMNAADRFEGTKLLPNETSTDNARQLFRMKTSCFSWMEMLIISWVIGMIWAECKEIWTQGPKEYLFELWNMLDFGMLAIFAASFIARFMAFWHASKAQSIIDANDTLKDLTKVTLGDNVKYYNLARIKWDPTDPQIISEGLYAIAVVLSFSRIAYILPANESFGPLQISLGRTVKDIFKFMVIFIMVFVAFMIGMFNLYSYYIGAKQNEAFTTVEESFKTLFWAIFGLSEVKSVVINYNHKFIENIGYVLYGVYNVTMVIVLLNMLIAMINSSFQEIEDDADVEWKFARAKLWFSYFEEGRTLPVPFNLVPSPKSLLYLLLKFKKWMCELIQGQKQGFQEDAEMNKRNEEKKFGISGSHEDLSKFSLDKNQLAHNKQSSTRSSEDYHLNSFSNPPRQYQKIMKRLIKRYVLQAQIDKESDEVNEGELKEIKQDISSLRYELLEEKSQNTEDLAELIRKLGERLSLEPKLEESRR
experiment.description: Whole-cell voltage clamp of TRPC6 currents evoked by GSK1702934A
Format: cell-based

{"columns": ["structure.smiles", "IC50, µM"],
 "data": [
  ["COc1cccc2sc(N(CCN(C)C)C(=O)c3ccc4c(c3)CCCC4)nc12", 4.19]
]}

====

measured.target: human TRPC3 (Homo sapiens)
Sequence (Q13507 whole entry): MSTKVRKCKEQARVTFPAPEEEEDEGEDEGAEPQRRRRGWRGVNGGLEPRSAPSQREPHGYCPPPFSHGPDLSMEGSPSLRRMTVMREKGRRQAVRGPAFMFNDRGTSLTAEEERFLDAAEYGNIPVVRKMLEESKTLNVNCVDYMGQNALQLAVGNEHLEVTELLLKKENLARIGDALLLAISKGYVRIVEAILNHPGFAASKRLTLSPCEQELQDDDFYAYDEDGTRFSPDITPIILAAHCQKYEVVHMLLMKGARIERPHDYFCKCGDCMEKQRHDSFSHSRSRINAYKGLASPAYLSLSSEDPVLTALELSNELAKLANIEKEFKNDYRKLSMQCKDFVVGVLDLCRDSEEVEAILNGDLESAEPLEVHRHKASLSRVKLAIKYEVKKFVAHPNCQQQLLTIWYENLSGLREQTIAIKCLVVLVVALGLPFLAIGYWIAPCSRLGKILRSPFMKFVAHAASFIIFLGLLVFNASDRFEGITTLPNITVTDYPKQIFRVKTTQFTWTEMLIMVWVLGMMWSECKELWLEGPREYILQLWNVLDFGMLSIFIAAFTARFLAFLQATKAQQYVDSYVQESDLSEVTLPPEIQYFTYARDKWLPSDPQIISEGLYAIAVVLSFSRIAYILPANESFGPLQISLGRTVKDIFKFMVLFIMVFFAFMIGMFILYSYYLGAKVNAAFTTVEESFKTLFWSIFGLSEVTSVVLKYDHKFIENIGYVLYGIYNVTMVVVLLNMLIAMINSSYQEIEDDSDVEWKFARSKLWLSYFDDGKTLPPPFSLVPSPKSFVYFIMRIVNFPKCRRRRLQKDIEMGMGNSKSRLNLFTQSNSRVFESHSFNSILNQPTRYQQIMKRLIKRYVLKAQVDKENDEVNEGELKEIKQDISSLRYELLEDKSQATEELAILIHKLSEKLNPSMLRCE
experiment.description: Fluorescence Ca2+ assay in TRPC3-HEK293 cells
pIC50: −log10 of the molar value.

{"columns": ["structure.smiles", "measured.target", "pIC50"],
 "data": [
  ["COc1cccc2sc(N(CCN(C)C)C(=O)c3ccc4c(c3)CCCC4)nc12", "human TRPC3 (Homo sapiens)", 5.48]
]}
